- System: E. coli Vogel
MEASURED ENDPOINT: MIC (µg/mL)
Just the number please, in µg/mL, no unit attached.

Answered cases to consult:
Name the recorded MIC for CC(=O)NCC(=O)Nc1ccc(-c2ncc(C(=O)N[C@@H](C(=O)NC3C(=O)N4C(C(=O)O)=C(CSc5nnnn5C)CSC34)c3ccccc3)c(O)n2)cc1 (stereo partly shown) .
0.8

Value lookup for MIC; key = CC(=O)NC(C)C(=O)Nc1ccc(-c2ncc(C(=O)N[C@@H](C(=O)N[C@@H]3C(=O)N4C(C(=O)O)=C(COC(C)=O)CS[C@H]34)c3ccc(O)cc3)c(O)n2)cc1 (mixture of isomers)
12.5

Using the record for NC(=O)CC[C@H](N)C(=O)Nc1ccc(-c2ncc(C(=O)N[C@@H](C(=O)NC3C(=O)N4C(C(=O)O)=C(CSc5nnnn5CC(=O)O)CSC34)c3ccccc3)c(O)n2)cc1 (stereo partly shown) , report its MIC.
3.1

Consider the molecule shown here: CC(=O)N[C@H](C)C(=O)Nc1ccc(-c2ncc(C(=O)N[C@@H](C(=O)N[C@@H]3C(=O)N4C(C(=O)O)=C(COC(C)=O)CS[C@H]34)c3ccc(O)cc3)c(O)n2)cc1 What is its recorded MIC?
6.3

State the recorded MIC for this entry: CC(=O)N[C@H](C)C(=O)Nc1ccc(-c2ncc(C(=O)N[C@@H](C(=O)N[C@@H]3C(=O)N4C(C(=O)O)=C(COC(C)=O)CS[C@H]34)c3ccccc3)c(O)n2)cc1
6.3

So what does the record say about MIC for CSCCC(NC(C)=O)C(=O)Nc1ccc(-c2ncc(C(=O)N[C@@H](C(=O)N[C@@H]3C(=O)N4C(C(=O)O)=C(COC(C)=O)CS[C@H]34)c3ccccc3)c(O)n2)cc1 (mixture of isomers) ?
6.3

Which MIC reading was recorded for the molecule CC(=O)NCCCC(=O)Nc1ccc(-c2ncc(C(=O)N[C@@H](C(=O)N[C@@H]3C(=O)N4C(C(=O)O)=C(COC(C)=O)CS[C@H]34)c3ccccc3)c(O)n2)cc1 ?
6.3

Quick one: MIC for CC(=O)NCCCCC(NC(C)=O)C(=O)Nc1ccc(-c2ncc(C(=O)N[C@@H](C(=O)N[C@@H]3C(=O)N4C(C(=O)O)=C(COC(C)=O)CS[C@H]34)c3ccccc3)c(O)n2)cc1 (mixture of isomers) ?
6.3

***
Record request: MIC value, item CC(=O)NC(CCC(N)=O)C(=O)Nc1ccc(-c2ncc(C(=O)N[C@@H](C(=O)N[C@@H]3C(=O)N4C(C(=O)O)=C(COC(C)=O)CS[C@H]34)c3ccccc3)c(O)n2)cc1 (mixture of isomers)
6.3

Data request, read-out MIC, for CC(=O)NC(C)C(=O)Nc1ccc(-c2ncc(C(=O)N[C@@H](C(=O)NC3C(=O)N4C(C(=O)O)=C(CSc5nnc(C)s5)CSC34)c3ccccc3)c(O)n2)cc1 (mixture of isomers)
3.1

Query: MIC; subject: CC(=O)N[C@H](C)C(=O)Nc1ccc(-c2ncc(C(=O)N[C@@H](C(=O)NC3C(=O)N4C(C(=O)O)=C(CSc5nnnn5CC(=O)O)CSC34)c3ccccc3)c(O)n2)cc1 (stereo partly shown)
3.1

Give its MIC value. Item: CC(=O)NC(C)C(=O)Nc1ccc(-c2ncc(C(=O)N[C@@H](C(=O)N[C@@H]3C(=O)N4C(C(=O)O)=C(COC(N)=O)CS[C@H]34)c3ccccc3)c(O)n2)cc1 (mixture of isomers)
12.5

I have this molecule here, CC(=O)N[C@@H](C)C(=O)Nc1ccc(-c2ncc(C(=O)N[C@@H](C(=O)N[C@@H]3C(=O)N4C(C(=O)O)=C(COC(C)=O)CS[C@H]34)c3ccccc3)c(O)n2)cc1 , and I need its recorded MIC.
12.5

What measured MIC goes with CC(=O)NC(C)(C)C(=O)Nc1ccc(-c2ncc(C(=O)N[C@@H](C(=O)N[C@@H]3C(=O)N4C(C(=O)O)=C(COC(C)=O)CS[C@H]34)c3ccccc3)c(O)n2)cc1 ?
25

Which MIC is reported for this molecule? CC(=O)N[C@H](C)C(=O)Nc1ccc(-c2ncc(C(=O)N[C@@H](C(=O)NC3C(=O)N4C(C(=O)O)=C(CSc5nnnn5CC(=O)O)CSC34)c3ccc(O)cc3)c(O)n2)cc1 (stereo partly shown)
3.1

What measured MIC goes with CC(=O)NC(C)C(=O)Nc1ccc(-c2ncc(C(=O)N[C@@H](C(=O)N[C@@H]3C(=O)N4C(C(=O)O)=C(COC(C)=O)CS[C@H]34)c3ccccc3)c(O)n2)cc1 (mixture of isomers) ?
6.3

Query: MIC; subject: CC(=O)NCCC(=O)Nc1ccc(-c2ncc(C(=O)N[C@@H](C(=O)N[C@@H]3C(=O)N4C(C(=O)O)=C(COC(C)=O)CS[C@H]34)c3ccccc3)c(O)n2)cc1
12.5

Would you kindly share the measured MIC for CC(=O)N[C@@H](C)C(=O)Nc1ccc(-c2ncc(C(=O)N[C@@H](C(=O)NC3C(=O)N4C(C(=O)O)=C(CSc5nnnn5CC(=O)O)CSC34)c3ccccc3)c(O)n2)cc1 (stereo partly shown) ?
1.6

Quick one: MIC for CC(=O)NC(C)C(=O)Nc1ccc(-c2ncc(C(=O)N[C@@H](C(=O)NC3C(=O)N4C(C(=O)O)=C(CSc5nnnn5C)CSC34)c3ccc(O)cc3)c(O)n2)cc1 (mixture of isomers) ?
1.6
